# method.notes: Oral bioavailability and pharmacokinetics in mice (plasma, mass spectroscopy)
# experimental.setup: mouse, plasma, po, 30 mg/kg
metric.name: AUC
Lab note: write values as number then unit, every time.

Form field AUC, entry CCCCCCCCCCCCOCC(COP(=O)(O)OC[C@H]1O[C@@H](n2cnc3c(N)nc(Cl)nc32)C(F)[C@H]1O)OCCCCCCCCCC (stereo partly shown) : 88900 ng·h/mL

====

# method.notes: Oral bioavailability and pharmacokinetics in mice (plasma, mass spectroscopy)
# experimental.setup: mice, 30 mg/kg orally, AUC(0-t)
metric.name: AUC after oral application

CCCCCCCCCCCCSCC(COP(=O)(O)OC[C@H]1O[C@@H](n2cnc3c(N)nc(Cl)nc32)[C@@H](F)[C@@H]1O)OCCCCCCCCCC (stereo partly shown) has a reported AUC after oral application of 213 µg·h/mL
